Every entry's value here was drawn from PubChem BioAssay (NCI).

Assay: NCI Yeast Anticancer Drug Screen. Data for the bub3 strain (AID 167)
Details: S. cerevisiae bub3 mutant strain, at 50.0 µM, active compounds read high
About 79,000 compounds went through this panel and 15% of them were active in at least one assay; those are over-represented in the sample as a whole.
quantity-kind: growth inhibition (%)
One number for each entry, in %.

The following compounds have reported results that may help.
Look at this compound and give its reported growth inhibition. "CC(=O)Nc1ccc(O)c([N+](=O)[O-])c1" -9.15

Could you tell me which growth inhibition is on file for c1ccc(CNC(Cc2ccccc2)c2ccc(OCc3ccccc3)cc2)cc1 (stereo unspecified) ? -10.2

Find the recorded growth inhibition belonging to "CCCCCCCCCC(=O)OCCCC(CCCOC(=O)CCCCCCCCC)OC(=O)CCCCCCCCC" and report it. -16.4

Your task in this section: give growth inhibition for each listed record.
1. O=C1C(c2ccccc2)=C(c2ccccc2)C(c2ccc(Sc3ccc(C4=C(c5ccccc5)C(=O)C(c5ccccc5)=C4c4ccccc4)cc3)cc2)=C1c1ccccc1
2. COc1cc(C(C)c2cc3c(cc2O)OCO3)cc(OC)c1OC (stereo unspecified)
3. Cc1c([N+](=O)[O-])ccn1C
4. COc1ccc(NC=O)c(C(O)CCNC(C)=O)c1 (stereo unspecified)
5. COc1ccc(C2OC(=N)C(=S)N2C)cc1O (stereo unspecified)
6. Cc1ccc(CCOC(=O)Nc2ccccc2)cc1

1: -1.2; 2: 26.8; 3: 7.2; 4: -39.1; 5: 2.5; 6: 1.8

Need growth inhibition for each of these compounds.
1. O=c1[nH]c(=O)c2ncn(C3OC(CO)C(O)C3O)c2[nH]1.O=c1[nH]c(=O)c2ncn(C3OC(CO)C(O)C3O)c2[nH]1.[NH2-].[NH2-].[Pt+2] (stereo unspecified)
2. Nc1ccc(Cc2ccc(N)c(Br)c2)cc1Br

[-8.5, -14.8]

###

Exercise: state measured growth inhibition for each of the compounds provided.
Assay: NCI Yeast Anticancer Drug Screen. Data for the bub3 strain (AID 167)
Conditions: S. cerevisiae bub3 mutant strain, at 50.0 µM, active compounds read high
This is part of a sample that, as a whole, favours compounds with a hit. Of some 79,000 tested, about 15% had one in any assay. Calls of active or inactive are those of the source. Cut-off read from the data, not from the text of the source: active = growth inhibition above about 70%; inactive = the rest.

Would you kindly share the measured growth inhibition for Cc1ccc(C)c(NC(=O)C(=O)C2C(=O)N(c3ccccc3)N=C2N)c1 (stereo unspecified) ? -26.4% (inactive)

May I ask what growth inhibition has been recorded for c1cc(OCC2CO2)ccc1OCC1CO1 (stereo unspecified) ? 8.8% (inactive)

# lookup: growth inhibition of "CC(C)=NNC(=O)c1ccccc1O" 1.65% (inactive)

Look up growth inhibition: "N#Cc1ccc(/C=C2\Cc3ccccc3C2=O)cc1" -18.8% (inactive)

// lookup growth inhibition for "Cc1ccc(C#N)c2c1CCC2" -13% (inactive)

Can you give me growth inhibition for all of these, one by one?
1. O=c1n(-c2ccccc2)c(=O)n2n1C1C3C4C5C1C5C2C43 (stereo unspecified)
2. CC[C@@]12C=CC(=S)N(CCSc3ccccc3)[C@@H]1c1c(n(S(=O)(=O)c3ccc(OC)cc3)c3ccccc13)CC2
3. Fc1c(F)c(F)c(CSc2nc3ccccc3[nH]2)c(F)c1F
4. Nc1ccccc1OCCOCCOc1ccccc1N

1: 5% (inactive); 2: -2.55% (inactive); 3: 0.35% (inactive); 4: 14.9% (inactive)

Batch lookup, growth inhibition per entry.
1. O=C1/C(=C/c2ccc(O)cc2)CCc2ccc([N+](=O)[O-])cc21
2. CC(=O)N(C(C)=O)n1c(-c2ccccc2)n[nH]c1=O

-0.8% (inactive)
-10.1% (inactive)

###

Please go through the items and note down their growth inhibition.
Assay: NCI Yeast Anticancer Drug Screen. Data for the sgs1 mgt1 strain (AID 161);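 further: 0% = growth of cultures given vehicle only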
Details: S. cerevisiae sgs1 mgt1 strain, at 50.0 µM, active compounds read high
Compounds without any hit were thinned out: in the full panel of roughly 79,000, 15% have a hit.
Answers are plain numbers, in %.

Examples from the recorded data:
Endpoint output: growth inhibition of "O=C(c1ccccc1Cl)c1ccc2ccccc2c1C(=O)O" . Value? -0.6

Consider the compound shown here: "O=C(c1ccc(Cl)cc1Cl)C(CS(=O)(=O)O)CS(=O)(=O)O" What is its recorded growth inhibition? -5.8

Consider the compound shown here: O=C1OC(=O)C2C3CC(C4OC34)C12 (stereo not given) What is its recorded growth inhibition? -3.55

Please look up its growth inhibition: "N#CCCC(=O)O" 11.7

Which growth inhibition reading was recorded for the compound "C(=Nc1ccc(SSc2ccc(N=Cc3ccc4c(c3)OCO4)cc2)cc1)c1ccc2c(c1)OCO2" ? -0.95

# get_value(readout='growth inhibition', item= "NNC(=S)NC1CCCCC1" ) 29.8

For the compound CCOP(=O)(OCCN(C)C)C(c1ccccc1)c1ccccc1 (stereo not given) , what growth inhibition is on record? -10.8

Which growth inhibition value is on record for "CCCc1ncc(C[n+]2ccccc2C)c(N)n1" ? 23.2

For each of the items listed, what is its growth inhibition?
1. Cc1ccc(C)c2c3c(sc12)CCCC3
2. Cc1nc(N)nc(C)c1N=Nc1ccc(Cl)cc1Cl

1. -7.15
2. 0.5

###

Assay: NCI Yeast Anticancer Drug Screen. Data for the bub3 strain (AID 167)
Conditions: S. cerevisiae bub3 mutant strain, at 50.0 µM, active compounds read high
The panel holds about 79,000 compounds, 15% with a hit somewhere; the sample as a whole holds those more often.
quantity-kind: growth inhibition (%)
Give bare numbers, in %.

Using the record for "O=C(COc1cccc(Cl)c1)Nc1ccccc1" , report its growth inhibition. 39.7

# map each compound to its growth inhibition
1. CCOc1ccccc1OCC
2. Oc1ccc(C=Nc2ccccc2)c(O)c1O
3. COc1ccc2c(c1OC)OC1CNc3cc(C)c(C)cc3N=C1C2 (stereo unspecified)
4. CCO/C(C)=N/NC(=O)c1n[nH]c2ccccc12
5. CCCCCC(Oc1ccc(Cl)cc1Cl)C(=O)O (stereo unspecified)
6. Cc1ccccc1C(O)(c1nccn1C)c1nccn1C
7. Cc1ccc(S(=O)(=O)NC(=O)c2ncn(C3OC(CO)C(O)C3O)c2N)cc1 (stereo unspecified)
8. COCOc1ccc(C(=O)C(C)c2ccc(OCOC)cc2OCOC)c(O)c1 (stereo unspecified)

-11.2
-9.7
12.8
-11.3
91.2
18.2
1.5
40.8

Count: 2. Required value per item: growth inhibition.
1. N#CC(O)CCOCc1ccccc1 (stereo unspecified)
2. NNC(=O)COCC(=O)NN

-5
-15.2

# batch size: 7; output growth inhibition per entry
1. CC1(C)N=C(N)N=C(N)N1c1cccc(OCCCOc2ccc([N+](=O)[O-])cc2)c1
2. COc1cc2c(oc(=O)c3c4occc4cc(OC)c23)c2cccc(O)c12
3. CCOc1ccccc1/C=C(/C#N)C(N)=O
4. N#CC(C#N)=CN1CCCCC1
5. COC(=O)c1cc(C(c2cc(C)c(O)c(C(=O)OC)c2)c2cc(C)c(O)c(C(=O)OC)c2)cc(C)c1O
6. Cc1ccc(O)c(C)n1
7. COc1ccc([N+](=O)[O-])c2ccc(=O)oc12

1: -7.8; 2: -24.8; 3: -50.4; 4: -6.35; 5: -0.3; 6: -0.2; 7: 4.75

Batch of 3 compounds: report growth inhibition for each.
1. COc1nc(OC)c2[nH]cnc2n1
2. COc1ccc(/C=C2\SC(c3ccc(OC)cc3)N(NC(=O)Cc3ccccc3)C2=O)cc1 (stereo unspecified)
3. O=C1NC(=O)C(c2ccc(Cl)c(Cl)c2)N1 (stereo unspecified)

1: -1.35; 2: 1.1; 3: -12.9

###

Assay: NCI Yeast Anticancer Drug Screen. Data for the mlh1 rad18 strain (AID 175)
Conditions: S. cerevisiae mlh1 rad18 strain growth inhibition; at 50.0 µM; active compounds read high
About 79,000 compounds went through this panel and 15% of them were active in at least one assay; those are over-represented in the sample as a whole. Calls of active or inactive are those of the source. Cut-off read from the data, not from the text of the source: active = growth inhibition above about 70%; inactive = the rest.
quantity-kind: growth inhibition

Name the reported growth inhibition value associated with the compound "CC1([N+](=O)[O-])COC2(CCCC2)OC1" 33.6% (inactive)

Field request: growth inhibition | item: COC1OC(C(=O)O)C(O)C(O)C1O (stereo not given) 8.3% (inactive)

Recorded growth inhibition for COc1ccc(N2C(=O)C3CC(c4ccc(Br)cc4)c4c([nH]c5ccccc45)C3C2=O)cc1 (stereo not given) , please? -4.95% (inactive)

Can you share its growth inhibition? I mean this compound: "C/C(=N\NS(=O)(=O)c1ccc(C)cc1)c1ccc[n+]([O-])n1" -0.55% (inactive)

Could you tell me which growth inhibition is on file for O=C1NC(=O)C2(CCC(O)C2)c2cc[n+]([O-])cc21 (stereo not given) ? -83.8% (inactive)

Below is a list of compounds. For each, state its recorded growth inhibition.
1. CC(=O)N[C@]1(C)CCC2C[C@H]1C(C)=NC2(C)C
2. Cc1ncn(-c2ccccc2)c(=O)c1N=Cc1ccccc1
3. O=S(=O)(Nc1ccccc1C(O)c1ccccc1)c1ccccc1 (stereo not given)
4. Cn1cnc2cc(NCCO)c([N+](=O)[O-])cc2c1=O

1. -14.4% (inactive)
2. -10.3% (inactive)
3. 34.4% (inactive)
4. 24.3% (inactive)

// each listed compound needs a value for growth inhibition
1. COc1ccc(Cl)c2c(=O)c3ccc4c(c3[nH]c12)C(=O)c1ccccc1C4=O
2. Brc1ccccc1/C=N\N=C\c1ccccc1Br
3. O=C(Nc1ccc(Cl)cc1C(F)(F)F)C(=O)Nn1c(=S)[nH]c2ccccc2c1=O
4. CCCCCCC(/C=N/Nc1ccccn1)=C\c1ccccc1
5. CC(=O)OCC1OC(n2c(C)cc(C)c(C#N)c2=S)C(OC(C)=O)C(OC(C)=O)C1OC(C)=O (stereo not given)
6. OC1COC2CC(Nc3ccccn3)OC12 (stereo not given)
7. O=C(O)CNC(=O)C(=O)c1c[nH]c2ccc([N+](=O)[O-])cc12
8. ClCC1CCCO1 (stereo not given)

1: 4.65% (inactive); 2: 5.35% (inactive); 3: 18.9% (inactive); 4: -21.9% (inactive); 5: 32.4% (inactive); 6: -13.6% (inactive); 7: 0.2% (inactive); 8: 25.6% (inactive)
